Biological target: Rap guanine nucleotide exchange factor 3 (Homo sapiens) (UniProt O95398)
Sequence (O95398 whole entry, looked up): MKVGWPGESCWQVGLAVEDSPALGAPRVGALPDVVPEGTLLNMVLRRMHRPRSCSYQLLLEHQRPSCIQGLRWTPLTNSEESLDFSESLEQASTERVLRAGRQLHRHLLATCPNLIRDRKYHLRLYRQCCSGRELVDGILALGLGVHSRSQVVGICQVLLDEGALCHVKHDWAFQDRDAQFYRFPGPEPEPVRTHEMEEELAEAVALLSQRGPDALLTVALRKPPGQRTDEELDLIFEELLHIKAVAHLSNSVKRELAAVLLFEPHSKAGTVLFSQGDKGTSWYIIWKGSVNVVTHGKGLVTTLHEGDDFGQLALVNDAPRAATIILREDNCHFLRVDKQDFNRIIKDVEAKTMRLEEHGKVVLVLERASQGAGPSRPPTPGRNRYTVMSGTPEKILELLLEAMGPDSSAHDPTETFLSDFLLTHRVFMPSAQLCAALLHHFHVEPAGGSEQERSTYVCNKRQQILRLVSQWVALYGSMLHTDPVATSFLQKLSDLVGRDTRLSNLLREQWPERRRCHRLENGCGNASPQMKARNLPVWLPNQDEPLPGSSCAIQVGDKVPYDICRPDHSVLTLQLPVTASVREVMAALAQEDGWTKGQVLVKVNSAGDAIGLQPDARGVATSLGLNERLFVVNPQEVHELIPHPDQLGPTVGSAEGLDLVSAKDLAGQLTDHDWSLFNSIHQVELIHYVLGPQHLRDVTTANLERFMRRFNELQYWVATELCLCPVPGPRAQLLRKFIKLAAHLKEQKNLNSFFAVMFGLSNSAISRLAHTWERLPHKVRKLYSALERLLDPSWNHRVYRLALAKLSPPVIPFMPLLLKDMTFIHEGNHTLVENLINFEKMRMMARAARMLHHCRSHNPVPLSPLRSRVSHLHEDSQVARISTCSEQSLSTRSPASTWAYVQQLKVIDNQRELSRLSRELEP
Experiment: Confirmatory qHTS for antagonist of cAMP-regulated guanine nucleotide exchange factor 3 (EPAC1) (AID 1645880); further: nearly all actives have a fitted effect of over 55% in size
Details: EPAC1 Rap1B-BODIPY-GDP exchange, fluorescence; series mostly up to 115 µM
Description: Assay Provider (PI): Xiaodong Cheng Ph.D. The University of Texas Medical Branch, […], TX MLPCN Grant: NS066510 In multi-cellular eukaryotic organisms, the effects of cAMP are transduced by two ubiquitously-expressed intracellular cAMP receptors, the classic protein kinase A/cAMP-dependent protein kinase (PKA/cAPK) and the more recently discovered exchange protein directly activated by cAMP/cAMP-regulated guanine nucleotide exchange factor (EPAC/cAMP-GEF). […]
Records with an inconclusive call do not appear. Active and inactive are the calls of the source. The call rests on the fitted dose curve; in most records, active means well fitted inhibition curve with a large enough effect; inconclusive means small, poorly fitted or top-dose-only effect; inactive means no such curve, though single readings can be large or run the other way.
Please reply with one of these outcomes: true (1) for active, false (0) for inactive

Some entries whose results are on file:
Cc1ccc(P(=O)(CSC(=N)N)c2ccc(C)cc2)cc1 : false (0)
CCN(CC)C(=O)CC(c1ccc2c(c1)OCO2)c1c(O)cc(OC)cc1OC (stereo unspecified) : false (0)
COc1cccc(-c2ccc3ncnc(N(C)Cc4ccco4)c3c2)c1 : false (0)

Asked: Could you kindly confirm the outcome this assay logged for CCC(=O)NC(c1cccs1)c1cc(Cl)c2cccnc2c1O (stereo unspecified) ?
Given back: false (0)

Asked: Test call, this molecule: "COc1ccc(C(=O)N2CCC3(CC2)CN(c2ccncc2)C3)cc1"
Given back: false (0)

Asked: Recorded call for "CC(=O)NS(=O)(=O)c1ccc(NC(=O)c2cc(-c3ccc(C)c(C)c3)nc3ccccc23)cc1" ?
Given back: true (1)

Asked: Outcome logged for "CN(C)c1ncc2nc(-c3cccs3)c(=O)n(CCC#N)c2n1" in this assay:
Given back: false (0)

Asked: Status in this test for "Cc1noc(C)c1C(=O)N1CCC2(CCN(Cc3ccc(C#N)cc3)CC2)CC1" ?
Given back: false (0)

Asked: I'd appreciate the recorded outcome for "COc1cc(O)c2c(=O)cc(C)oc2c1CC=C(C)C" from this test.
Given back: false (0)

Asked: Identify the outcome logged in this assay for the molecule shown: CCC(=O)NC(c1cccs1)c1cc(Cl)c2ccccc2c1O (stereo unspecified)
Given back: false (0)

Asked: Lab log entry: "O=C(CSc1nc2ccccc2n1CCc1ccccc1)c1ccc(O)c(O)c1" — outcome as called in the assay?
Given back: true (1)

---

Target: Dual specificity protein kinase CLK4 (Homo sapiens) (UniProt Q9HAZ1)
Sequence (Q9HAZ1 whole entry, looked up): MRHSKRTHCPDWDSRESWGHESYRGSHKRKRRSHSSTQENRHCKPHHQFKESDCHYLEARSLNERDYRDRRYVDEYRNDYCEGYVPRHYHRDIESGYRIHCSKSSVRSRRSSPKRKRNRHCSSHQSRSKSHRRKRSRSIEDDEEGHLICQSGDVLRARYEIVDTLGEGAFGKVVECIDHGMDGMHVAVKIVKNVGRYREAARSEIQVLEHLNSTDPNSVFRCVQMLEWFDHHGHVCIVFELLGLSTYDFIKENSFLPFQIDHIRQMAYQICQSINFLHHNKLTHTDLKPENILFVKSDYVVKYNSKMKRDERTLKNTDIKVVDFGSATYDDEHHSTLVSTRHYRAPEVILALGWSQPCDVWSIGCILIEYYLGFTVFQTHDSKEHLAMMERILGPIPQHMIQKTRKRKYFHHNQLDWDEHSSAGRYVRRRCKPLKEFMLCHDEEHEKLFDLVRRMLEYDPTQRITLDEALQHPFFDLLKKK
Experiment: qHTS Assay for Inhibitors of CDC-like Kinase 4 (ADP-Glo Assay) (AID 1771); further: nearly all actives have a fitted effect of over 70% in size
Conditions: recombinant CLK4, ADP-Glo luminescence; series mostly up to 80 µM
Results filed as inconclusive are left out. Activity calls are given as the source filed them. Calls come from the whole dose curve; as a rule, active = well fitted inhibition curve with a large enough effect; inconclusive = small, poorly fitted or top-dose-only effect; inactive = flat fitted curve, though single readings scatter.
Pick one and only one: active, inactive

Worked examples follow.
Cn1cc(-c2nc3cnc(N4CCNCC4)nc3n(CCC#N)c2=O)c2ccccc21 : inactive
COCCn1c(=O)c(-c2ccc(Cl)cc2)nc2cnc(Nc3ccccc3)nc21 : inactive
O=c1c(-c2cc(F)cc(F)c2)nc2cnc(N3CCOCC3)nc2n1Cc1cccs1 : inactive
O=c1c(-c2ccccc2)nc2cnc(N3CCNCC3)nc2n1-c1ccccc1 : inactive
Cc1noc(C)c1-c1cncnc1NCc1cccnc1 : inactive
Cn1c(=O)c(-c2ccc(Cl)cc2)nc2cnc(Oc3cccc(Cl)c3)nc21 : inactive
O=c1c(-c2ccc(Cl)cc2)nc2cnc(N3CCNCC3)nc2n1Cc1cccs1 : inactive
COc1ccc(-n2c(=O)c(-c3cn(C)c4ccccc34)nc3cnc(N4CCOCC4)nc32)cc1 : inactive

Asked: Query: recorded result category for "CN1CCN(c2ncc3ncc(=O)n(C[C@H]4CCCO4)c3n2)CC1" in this test
Given back: inactive

Asked: // outcome(item) with item = "CN(C)C(=O)c1ccc(-c2cncnc2N2CCNCC2)cc1"
Given back: inactive

Asked: Can you look up the reported call for "c1csc(CNc2cc(-c3ccoc3)ncn2)c1" for me?
Given back: active

// provenance: PubChem BioAssay (NCATS)
